- SYSTEM NAME: NCAP (SARS-CoV-2, UniProt P0DTC9)
- MEASUREMENT NOTES: EMSA
pKd: −log10 of the molar value.

# BINDER, pKd
records = [
    ("GGCUGUGUGGCUGUCACUCGGCUGCAUGCUUAGUGCACUCACGCAG (structured_RNA) [SL4]", 5.32),
]
